System: LG0703-F498-PDC complex spheroid growth
Experiment: Anticancer human tumor LG0703-F498-PDC patient-derived lung adenocarcinoma cell line growth inhibition [AhR]
Conditions: second compound 1 µM; first compound 3.16 µM; hits give low values
Class field: derived from viability, T/C; ranges I (below 50%), II (50% to below 70%), III (70% or more)

compound | test.system | category
COc1cc(Nc2ncc3c(n2)-c2ccc(Cl)cc2C(c2c(F)cccc2OC)=NC3)ccc1C(=O)O + Cc1ccccc1N=Nc1ccc(NC(=O)c2ccnn2C)c(C)c1 | LG0703-F498-PDC complex spheroid growth | II
COc1ccc([C@@H](O)c2cc(-c3ncnc4cc(N5CCOCC5)ccc34)c(F)cc2Cl)nn1 + Cc1cncc(-c2nc(NCCc3c[nH]c4ccccc34)c3ncn(C(C)C)c3n2)c1 | LG0703-F498-PDC complex spheroid growth | II

Form: Item = Nc1ccn(C2OC(CO)C(O)C2(F)F)c(=O)n1 (stereo not given) + CC(CO)NC(=O)c1cc(-c2ccc(Cl)cc2)nn(-c2cnn(C)c2)c1=O ; Class = ? I

Bin? CC(C)c1c(-c2ccccc2)nc2c(C#N)c[nH]n2c1=O + CC(CO)NC(=O)c1cc(-c2ccc(Cl)cc2)nn(-c2cnn(C)c2)c1=O III

Which viability, T/C band matches COc1cc(C2c3cc4c(cc3C(OC3OC5COC(C)OC5C(O)C3O)C3COC(=O)C23)OCO4)cc(OC)c1O (stereo not given) + Cc1ccccc1N=Nc1ccc(NC(=O)c2ccnn2C)c(C)c1 ? II

# bin label for CC1(C)CCC(CN2CCN(c3ccc(C(=O)NS(=O)(=O)c4ccc(NCC5CCOCC5)c([N+](=O)[O-])c4)c(Oc4cnc5[nH]ccc5c4)c3)CC2)=C(c2ccc(Cl)cc2)C1 + Cc1ccccc1N=Nc1ccc(NC(=O)c2ccnn2C)c(C)c1 III

Exercise: read the entry NS(=O)(=O)OCC1CC(n2ccc3c(NC4CCc5ccccc54)ncnc32)CC1O (stereo not given) + Cc1cncc(-c2nc(NCCc3c[nH]c4ccccc34)c3ncn(C(C)C)c3n2)c1 and state which class it falls under. I

Each compound maps to one class by viability, T/C. Which class for CC1COCCN1c1cc(C2(S(C)(=N)=O)CC2)nc(-c2ccnc3[nH]ccc23)n1 (stereo not given) + Cc1cncc(-c2nc(NCCc3c[nH]c4ccccc34)c3ncn(C(C)C)c3n2)c1 ? III

Which class is correct for the following compound? COc1ccc([C@@H](O)c2cc(-c3ncnc4cc(N5CCOCC5)ccc34)c(F)cc2Cl)nn1 + CC(CO)NC(=O)c1cc(-c2ccc(Cl)cc2)nn(-c2cnn(C)c2)c1=O II

* * *

Test system: LG0703-F498-PDC complex spheroid growth
Assay: Anticancer human tumor LG0703-F498-PDC cell line growth inhibition [AhR];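 note: luminescence taken as a proxy for viable cell amount; percent of DMSO vehicle control where 100% means growth equal to vehicle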
Conditions: second compound 3.16 µM; first compound 1 µM; hits give low values
viability, T/C values for the compounds below.
Write the answer as a number in %, unit excluded.

Record excerpt, results attached:
compound | test.system | recorded.measurement
O=C(C=Cc1cccc(S(=O)(=O)Nc2ccccc2)c1)NO + CC(CO)NC(=O)c1cc(-c2ccc(Cl)cc2)nn(-c2cnn(C)c2)c1=O | LG0703-F498-PDC complex spheroid growth | 39
O=C(C=Cc1cccc(S(=O)(=O)Nc2ccccc2)c1)NO + Cc1cncc(-c2nc(NCCc3c[nH]c4ccccc34)c3ncn(C(C)C)c3n2)c1 | LG0703-F498-PDC complex spheroid growth | 25
COc1ccc([C@@H](O)c2cc(-c3ncnc4cc(N5CCOCC5)ccc34)c(F)cc2Cl)nn1 + CC(CO)NC(=O)c1cc(-c2ccc(Cl)cc2)nn(-c2cnn(C)c2)c1=O | LG0703-F498-PDC complex spheroid growth | 68.3

From here, focus on the item given below.
Name the recorded viability, T/C of the compound listed here: COc1cc(Nc2ncc3c(n2)-c2ccc(Cl)cc2C(c2c(F)cccc2OC)=NC3)ccc1C(=O)O + Cc1cncc(-c2nc(NCCc3c[nH]c4ccccc34)c3ncn(C(C)C)c3n2)c1 34.6
